The origin of these recorded values is patent US10953017B2.

Tested on: NF-kB
assay: NF-kB promoter-driven firefly luciferase reporter assay in SH-5YSY clone C1
Type: cell-based, human
condition_info: Homo sapiens; SH-5YSY clone C1, NF-kB luciferase reporter
Assign IC50 to each entry below.
Quote the value and follow it with the unit of measurement.

Need IC50, item CCC(=O)NC(c1ccccc1Cl)c1ccc2cccnc2c1O (centres unmarked) [AB00100961] 3.97 µM

Now consider Cc1ccc2nc(-c3ccc(NC(=O)CCN4C(=O)c5ccccc5C4=O)cc3)sc2c1 [AB00547004] and answer again. 0.155 µM

Follow-up entry: COc1ccc(-c2cc(-c3ccccc3O)[nH]n2)cc1 [AB00461411] 0.968 µM

Ok, now Cc1ccc(NC(=O)N2CCc3ccccc32)cc1C [AB00616066] 0.361 µM

Again, but for CC(=O)CSc1nc2cc3c(cc2cc1C#N)OCCO3 [AB00614173] 0.104 µM

Another: Clc1c(CSc2nc3ccccc3o2)nc2sccn12 [AB00428616] 2.41 µM

Then Clc1ccc(-c2nnc(-c3ccccc3Cl)o2)cc1 [AB00084000] ? 0.062 µM

What would you report for COc1ccc(C(=O)/C=C(\C)Nc2ccccc2O)cc1 [AB00102118] ? 0.235 µM

How about CC(C)(C)c1ccc(-c2csc(N)n2)cc1 [AB00095939] ? 0.133 µM

Repeat with COc1ccc(-c2coc3cc(OC)cc(O)c3c2=O)cc1 [AB00052939] 1.73 µM

Same question, CC(C)Oc1cc(O)c2c(=O)c(-c3ccc(O)cc3)coc2c1 [AB00431689] this time 4.52 µM

What do you have for S=C(c1ccc(-c2ccc(Cl)cc2)o1)N1CCOCC1 [AB00092070] ? 0.775 µM

Can you handle Cc1ccc(/C=C2\Sc3ccccc3C2=O)s1 [AB00534272] next? 5.98 µM

Proceed to CCC(=O)NC(c1ccc(C)cc1)c1ccc2cccnc2c1O (centres unmarked) [AB00101018] 3.17 µM

COc1ccccc1-c1nc(-c2ccc(C)cc2)no1 [AB00093558] , same question. 0.1 µM

Next record, please: O=C(CCN1C(=O)/C(=C\C=C\c2ccccc2)SC1=S)Nc1ccc(C(=O)O)cc1 [AB00121550] 0.545 µM

Can you handle O=c1c(-c2ccc3c(c2)OCCO3)coc2cc(O)cc(O)c12 [AB00390364] next? 22.7 µM

Next compound: O=C1/C(=C\c2ccco2)Sc2ccccc21 [AB00083422] 3650 µM

Please do the same for Cc1ccc(-c2csc(Nc3ccc(C(=O)O)cc3)n2)cc1C [AB00097765] as well. 0.062 µM

Okay, and c1ccc2oc(-c3csc(N4CCOCC4)n3)cc2c1 [AB00613917] ? 0.966 µM

Would you kindly repeat that for COC(=O)c1sc2nc(-c3ccccc3)ccc2c1N [AB00079098] ? 0.067 µM

Another compound: Cc1ccc(-c2csc(Nc3ccccc3)n2)cc1 [AB00079697] 0.142 µM

Record: Oc1ccccc1C1NN=C(c2ccccc2)S1 (centres unmarked) [AB00092734] 0.382 µM
